Assay: Cytotoxicity of glutamic acid (cell viability, cell proliferation assay kit)
Type: cell-based
Conditions: mouse; 0-9 mM, 24 hours incubation
measured metric: IC50 at 24 h (mM)
Give bare numbers, in mM.

Give a short answer stating reported IC50 at 24 h for N[C@@H](CCC(=O)O)C(=O)O .
5.1
